Entry source: patent US20230115176A1

# MEASUREMENT TARGET: Human C5 (Homo sapiens, UniProt P01031)
# Construct: purchased Complement Technology
# Sequence (P01031 19-1676): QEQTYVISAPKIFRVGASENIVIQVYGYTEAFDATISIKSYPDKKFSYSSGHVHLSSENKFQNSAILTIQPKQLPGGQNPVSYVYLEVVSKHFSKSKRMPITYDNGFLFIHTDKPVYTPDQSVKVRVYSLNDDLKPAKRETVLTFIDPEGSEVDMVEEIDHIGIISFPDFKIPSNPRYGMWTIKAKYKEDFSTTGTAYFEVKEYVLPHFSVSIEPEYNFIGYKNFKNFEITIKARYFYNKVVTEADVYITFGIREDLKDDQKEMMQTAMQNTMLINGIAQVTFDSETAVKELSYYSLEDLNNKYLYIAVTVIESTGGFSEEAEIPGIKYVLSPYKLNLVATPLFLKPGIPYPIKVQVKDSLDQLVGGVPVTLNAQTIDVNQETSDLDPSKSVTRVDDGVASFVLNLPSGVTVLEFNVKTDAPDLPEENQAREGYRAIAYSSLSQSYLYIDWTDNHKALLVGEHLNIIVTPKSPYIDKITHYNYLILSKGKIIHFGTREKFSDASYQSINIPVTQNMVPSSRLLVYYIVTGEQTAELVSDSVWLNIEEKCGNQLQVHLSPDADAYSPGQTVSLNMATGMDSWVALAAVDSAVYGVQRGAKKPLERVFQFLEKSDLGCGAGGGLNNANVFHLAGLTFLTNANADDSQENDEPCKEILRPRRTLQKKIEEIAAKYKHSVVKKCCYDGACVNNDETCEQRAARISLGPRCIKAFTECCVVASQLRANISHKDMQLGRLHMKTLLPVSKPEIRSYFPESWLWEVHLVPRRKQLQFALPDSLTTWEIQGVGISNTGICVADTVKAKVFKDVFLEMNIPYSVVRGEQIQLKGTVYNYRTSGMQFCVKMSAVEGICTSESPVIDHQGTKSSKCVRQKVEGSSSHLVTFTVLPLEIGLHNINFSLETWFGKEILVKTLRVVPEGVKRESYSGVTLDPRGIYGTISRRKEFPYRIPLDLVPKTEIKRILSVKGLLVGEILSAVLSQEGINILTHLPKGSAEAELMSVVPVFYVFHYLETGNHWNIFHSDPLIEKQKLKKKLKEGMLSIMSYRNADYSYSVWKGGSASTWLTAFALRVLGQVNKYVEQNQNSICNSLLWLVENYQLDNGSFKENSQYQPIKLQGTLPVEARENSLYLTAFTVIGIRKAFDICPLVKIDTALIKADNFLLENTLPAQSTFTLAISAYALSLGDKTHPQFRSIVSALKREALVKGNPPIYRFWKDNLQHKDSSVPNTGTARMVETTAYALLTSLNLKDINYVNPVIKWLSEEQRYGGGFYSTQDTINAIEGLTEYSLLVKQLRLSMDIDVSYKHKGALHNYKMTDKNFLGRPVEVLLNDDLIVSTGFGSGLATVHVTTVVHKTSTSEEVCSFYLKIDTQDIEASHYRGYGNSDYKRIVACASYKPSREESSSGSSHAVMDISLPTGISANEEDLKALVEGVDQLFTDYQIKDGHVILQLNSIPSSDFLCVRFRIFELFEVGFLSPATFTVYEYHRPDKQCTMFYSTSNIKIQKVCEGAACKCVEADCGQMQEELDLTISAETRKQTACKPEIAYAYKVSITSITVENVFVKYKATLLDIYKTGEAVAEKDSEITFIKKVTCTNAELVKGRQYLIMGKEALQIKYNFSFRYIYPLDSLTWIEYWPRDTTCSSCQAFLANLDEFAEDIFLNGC
# ASSAY METHOD TEXT: Surface plasmon resonance (SPR), compounds on immobilized human C5 (Example 2, Table 5)
# Format: binding
# DETAILS: lowest value where a range of compound concentrations were analyzed
pKd: −log10 of the molar value.
QUANTITY KIND: pKd

# annotated cases, reported pKd shown
COc1ccc(NC(=O)N[C@@H](C(N)=O)c2ccccc2)cc1OCCCC(C)C : 5.77
COc1ccc(NC(=O)NCc2ccccc2CO)cc1OCCCC(C)C : 6.99
COc1ccc(NC(=O)N[C@@H](CO)c2ccccc2)cc1C(F)(F)F : 5.49

A = COc1ccc(NC(=O)NCc2cnccn2)cc1OCCCC(C)C
B = COc1ccc(NC(=O)NC(c2ccccc2F)[C@@H](O)CO)cc1OCCCC(C)C (some centres unmarked)
Decide: A or B , by lowest recorded pKd. Kindly give the label for the entry you pick.
B
(B: 5.57, A: 6.84)

====

# MEASUREMENT TARGET: UniProtKB P01031
# ASSAY METHOD TEXT: Red blood cell (RBC) hemolysis assay, optical, absorbance 412 nm (Example 10, Table 19)
# Type: cell-based
# DETAILS: antibody-sensitized sheep erythrocytes, […] human C5 depleted sera, 0.5 nM purified human C5, absorbance 412 nm; read-out: RBC Hemolysis IC50
QUANTITY KIND: IC50 (nM)
Number in nM, nothing else.

# annotated cases, reported IC50 shown
COc1ccc(NC(=O)N2CCc3ccc(O)cc3C2)cc1OCCCC(C)C : 1280
COc1ccc(NC(=O)NCc2ccnc3c2ccn3C)cc1OCCCC(C)C : 2350
COc1cccc(C2CCCN2C(=O)Nc2ccc(OC)c(OCCCC(C)C)c2)c1 (centres unmarked) : 970
COc1ccc(NC(=O)NCc2c(F)cnc3c2ccn3CC(=O)N(C)C)cc1OCCCC(C)C : 1600
COc1ccc(NC(=O)NCc2cccc(NC(C)=O)c2)cc1OCCCC(C)C : 400

If you can, please state the reported IC50 value of COc1ccc(NC(=O)NCc2ccnc(NCCN(C)C)c2OC)cc1OCCCC(C)C .
65.5

If you can, please state the reported IC50 value of COc1ccc(NC(=O)NCc2ccnc3c2ccn3Cc2ccncc2)cc1OCCCC(C)C .
432

If you can, please state the reported IC50 value of COc1ccc(NC(=O)NCc2ccnc3c2ccn3CCN2CCCS2(=O)=O)cc1OCCCC(C)C .
618

====

IC50 by entry:
# MEASUREMENT TARGET: Human C5 (Homo sapiens)
# Construct: purchased Complement Technology
# ASSAY METHOD TEXT: Red blood cell (RBC) hemolysis assay, luminescent (Example 13, Table 22)
# Format: cell-based
# DETAILS: sheep EA cells, […] C5-depleted human serum, 0.5 nM human C5, 1 hour 37° C., luminescence
Number in µM, nothing else.

If you can, please state the reported IC50 value of CCCCCOc1cc(N2CCCN(Cc3cccnc3OC)C2=O)ccc1OC .
0.0406

If you can, please state the reported IC50 value of CCCCCOc1cc(N2CCCN(Cc3cc(C4=CCNCC4)ccc3OC)C2=O)ccc1OC .
0.707

If you can, please state the reported IC50 value of CCCCCOc1cc(N2CCN(Cc3ccnc4c3ccn4CC(=O)N3CCOC(COC)C3)C2=O)ccc1OC (centres unmarked) .
3.14

If you can, please state the reported IC50 value of CCCCCOc1cc(N2CCCN(Cc3ccc(CC(=O)N4CCCOCC4)cc3Cl)C2=O)ccc1OC .
0.0325

If you can, please state the reported IC50 value of COc1cc(CC(=O)N(C)C)ccc1CN1CCCN(c2ccc(OC)c(OCCC[C@H]3C[C@H]3C)c2)C1=O (racemic) .
0.0157

If you can, please state the reported IC50 value of CCCCCOc1cc(N2CCCN(Cc3ccc(CCn4ccnc4)cc3OC)C2=O)ccc1OC .
0.0917

If you can, please state the reported IC50 value of COc1ccc(F)cc1CN1CCCN(c2ccc(OC)c(OCc3cccc(C)c3)c2)C1=O .
0.119

If you can, please state the reported IC50 value of CCCCCOc1cc(N2CCCN(Cc3ccc(CC(=O)N4CCOC(CN(C)C)C4)cc3OC)C2=O)ccc1OC (racemic) .
0.0125

====

# MEASUREMENT TARGET: Human C5 (Homo sapiens, UniProt P01031)
# Construct: purchased Complement Technology
# ASSAY METHOD TEXT: Surface plasmon resonance (SPR), immobilized human C5 (Example 9, Table 18)
# Assay type: binding
# DETAILS: immobilized human C5, equilibrium dissociation constant; read-out: SPR C5 EQ KD
pKd: −log10 of the molar value.
QUANTITY KIND: pKd

# annotated cases, reported pKd shown
COCc1cccc(CNC(=O)Nc2ccc(OC)c(OCCCC(C)C)c2)c1 [Compound C5INH-0502] : 5.72
COc1ccc(NC(=O)NCc2ccnc3c2ccn3CCCN)cc1OCCCC(C)C [Compound C5INH-0544] : 6.68
COc1ccc(NC(=O)NCc2cccc3[nH]ccc23)cc1OCCCC(C)C [Compound C5INH-0537] : 7.09

P = COc1ccc(NC(=O)NCc2ccnc3c2ccn3CC(=O)N(C)C)cc1OCCCC(C)C [Compound C5INH-0538]
Q = COCCOc1ccccc1CNC(=O)Nc1ccc(OC)c(OCCCC(C)C)c1 [Compound C5INH-0335]
Sort P and Q by pKd descending and give the first. Kindly give the label for the entry you pick.
P
(P: 7.10, Q: 6.74)

====

pIC50 by entry:
# MEASUREMENT TARGET: Human C5 (Homo sapiens, UniProt P01031)
# Construct: purchased Complement Technology
# ASSAY METHOD TEXT: Red blood cell (RBC) hemolysis assay, luminescent (Example 28, Table 32)
# Type: cell-based
# DETAILS: sheep EA cells, 1.5% C5-depleted human serum, 0.5 nM human C5, 1 hour at 37° C., luminescence (Table 32)
Entry type: numeric. Quantity: pIC50, the -log10 of concentration in molar units.

COc1cc(CC(=O)N(C)C)ccc1CN1C(=O)N(c2ccc(OC)c(OCCCC3CC3)c2)CC[C@@H]1C : 8.74
CCCCCOc1cc(N2CC[C@@H](C)N(Cc3cccc4c3ccn4CC(=O)O)C2=O)ccc1OC : 6.87
CCCCCOc1cc(N2CC[C@H](C)N(Cc3ccnc4c3c(Cl)cn4CC(=O)N3CC(N(C)C)C3)C2=O)ccc1OC : 8.59
CCCCCOc1cc(N2CC(C)CN(Cc3ccc(CC(=O)N4CCCOCC4)cc3OC)C2=O)ccc1OC (stereo not drawn) : 8.24

State its pIC50 on Human C5 (Homo sapiens, UniProt P01031): CCCCCOc1cc(N2CC[C@@H](C)NC2=O)ccc1OC
5.58

State its pIC50 on Human C5 (Homo sapiens, UniProt P01031): CCCCCOc1cc(N2CC[C@H](C)N(Cc3ccnc4c3c(Cl)cn4CC(=O)N3CCOC(CN(C)C)C3)C2=O)ccc1OC (stereo partly drawn)
8.59

State its pIC50 on Human C5 (Homo sapiens, UniProt P01031): COc1cc(CC(=O)O)ccc1CN1CC(C)CN(c2ccc(OC)c(OCCCC3CC3)c2)C1=O (stereo not drawn)
7.26

State its pIC50 on Human C5 (Homo sapiens, UniProt P01031): COc1ccc(N2CC[C@H](C)N(Cc3cccc4c3c(Cl)cn4CC(=O)N(C)C)C2=O)cc1OCCCCC1CC1
8.68

State its pIC50 on Human C5 (Homo sapiens, UniProt P01031): CCCCCOc1cc(N2CC[C@H](C)N(Cc3ccnc4c3c(Cl)cn4CC(=O)N3CC[C@H](N(C)C)C3)C2=O)ccc1OC
8.77

State its pIC50 on Human C5 (Homo sapiens, UniProt P01031): CCCCCOc1cc(N2CC[C@H](C)N(Cc3cccc4[nH]cc(C)c34)C2=O)ccc1OC
8.66

State its pIC50 on Human C5 (Homo sapiens, UniProt P01031): CCCCCOc1cc(N2CC(CO)CN(Cc3ccc(C#N)cc3OC)C2=O)ccc1OC (stereo not drawn)
7.01

State its pIC50 on Human C5 (Homo sapiens, UniProt P01031): CCCCCOc1cc(N2CC[C@H](C)N(Cc3ccnc4c3c(Cl)cn4CC(=O)N3CC(O)(C(F)(F)F)C3)C2=O)ccc1OC
8.77

State its pIC50 on Human C5 (Homo sapiens, UniProt P01031): CCCCCOc1cc(N2CC[C@H](C)N(Cc3cccc4c3c(C)cn4CC(=O)N(C)C3CCN(CC)C3)C2=O)ccc1OC (stereo partly drawn)
8.96

State its pIC50 on Human C5 (Homo sapiens, UniProt P01031): CCCCCOc1cc(N2CC[C@H](C)N(Cc3ccnc4c3c(Cl)cn4CC(=O)N3CCC3)C2=O)ccc1OC
8.82
